Values compiled from the supplement of paper PMC9170038.

Give apparent KD of MS2 coat protein for every item shown.
System: MS2 coat protein
Assay: apparent KD of MS2 coat protein; designed switch direction (-1 OFF switch, 1 ON switch): -1; higher = weaker reporter binding
Conditions: input ligand: FMN 200 uM
Give the value in µM but do not write µM after it.

apparent KD of MS2 coat protein recorded for this sequence, CUCCCACAUGAGGAUCACCCAUGUGAGGAUAUGGAGCGCGACCGCGCGGUCGCGUACACCAGAAGGCGCAUGAU [1st #81] (Eterna round: R97, puzzle: Exclusion 1) , is 0.0241

Summary for this sequence, UUCGUGCAGCUUUGCUGUACGCGUACAUGAGGAUCACCCAUGUAGGAUAUGGUACGCAAAGCGUGCUAGAAGGAUAUGGAGAGG [Mat - Exclusion NG 3 - Mod of JL - D81] (Eterna round: R96, puzzle: Exclusion NG 3) : apparent KD of MS2 coat protein is 0.0117

Item: ACAUGAGGAUCACCCAUGUGACCACGAUGGCUGAUGUAAAGACAGGAUAUGUGUGAAUAUCUAACACAGAAGGGUCUUGACUGG [Deportation 56 - Jieux - Exclusion NG 3] (Eterna round: R96, puzzle: Exclusion NG 3) | apparent KD of MS2 coat protein: 0.0338

// apparent KD of MS2 coat protein value for CUUGACUGAGGAUAUACGAGAUCGAAAGAUCGGCGAUCCCUACAUGAGGAUCACCCAUGUAGAAGGCAGUCAAG [Mod 14 - Jieux - Exclusion 2] (Eterna round: R97, puzzle: Exclusion 2) : 0.0706

apparent KD of MS2 coat protein in this record for GGAUCACAUGUGAGGAUAUGCAGGUCCUUGGAUCUGCAGAAGGCACAUGAGGAUCACCCAUGUGAUCAAGAUCC [Mat - Exclusion 4 - Eli Mod - D49] (Eterna round: R97, puzzle: Brourd's mod of Exclusion 4) : 0.0474

----------
System: MS2 coat protein
Assay: apparent KD of MS2 coat protein, switch OFF state (with FMN for OFF switches, without FMN for ON switches); designed switch direction (-1 OFF switch, 1 ON switch): -1; higher = weaker reporter binding
Settings: FMN input: 0 or 200 uM; Eterna round: R93 (includes R88 designs)
property_label: apparent KD of MS2 coat protein (nM)
Provide the reading as a plain figure in nM.

sequence AACAGUACAGGAUAUACAUGAGGAUCACCCAUGUGAAAAUUAAGUGGAGAACCACAGUGUAGAAGGGUACUGGA [Mat - Exclusion 3 - Eli mod - D52] , apparent KD of MS2 coat protein observed: 49.8

Form: sequence = AAACAACAUGAGGAUCACCCAUGUUAGGAUAUGAACGAAAUAAAAUAAAAAUAAAAGUUCAGAAGGGACAAAAA [Mat - Exclusion 1 - Eli mod - D21] ; apparent KD of MS2 coat protein = 25.6

Reported apparent KD of MS2 coat protein for CUCAAGUAAGGAUAUCUAAGAAAAGAAGAGAAAGAAAAGAAAGAGAAGGUACAUGAGGAUCACCCAUGUAAGAA [EteRNA is fun!] was 29.9

----------
System: MS2 coat protein
Experiment: apparent KD of MS2 coat protein; higher = weaker reporter binding
Settings: Eterna round: R107; input ligand: theophylline 2 mM
Answer each item with its documented apparent KD of MS2 coat protein.
Number only, in nM; omit the unit.

// apparent KD of MS2 coat protein lookup, sequence = CGCAACCAACAUGAGGAUCACCCAUGUGAAGGAGCGCCGAAGAAGGCAGGUAGGUCGCACAUGAAUAAAUCAUGUAAAAGGUUGC [MAT - Exclusion Arginine A - Mod of Eli - D19] , result: 71.2

Record UAUCGUCAGACGGCCGCCACUAGAACAUGAGGAUCACCCAUGUACUAGUGGCAUACCUCAUGAACUAGGACCGGGUCUGACGAAU [(Trp1)-(Ms2)-(T)'-(M)'-(Trp2)_Design10] . Reported apparent KD of MS2 coat protein: 10.2

The reported apparent KD of MS2 coat protein of the sequence AAGACUGGACAUAAGUCCAGUCAACCUGAAGGAGCGGGUGGGUGCCCAGGUAGGUCGCGGGAACAUGAGGAUCACCCAUGUAUAA [ArgAS 5 #BothOrNeither #OpenEnded] was 31.9

Entry ACAUGAGGAUCACCCAUGUAAUACCGGGAAGGAGCGCGUAAGGACGCAGGUAGGUCGCUCGGCGUCCGGCCGCAAGGCCGGACGA [#1 Same State - Arginine A Attempt #12 (HarryS)] , apparent KD of MS2 coat protein reported as 10.7

Memo: UGUAUGUGAUUUGAUACCAGACCAGCUGGUGUUACAAGAGGAUCACCCUUGUAGGUUUGGGUCCCUUGGCAGCAAAUCGCAUACU [SS Theo B #24 Ms4] , reported apparent KD of MS2 coat protein: 17.5

----------
System: MS2 coat protein
Assay: apparent KD of MS2 coat protein; higher = weaker reporter binding
Conditions: Eterna round: R107; input ligand: theophylline 20 uM
Is apparent KD of MS2 coat protein at least 40 nM? Then true (1). If not, false (0).

Entry CACGCACGAUCGGCCGCCACUCAUGUAGCUUACAUGAGGAUCACCCAUGUAUUUUCUUUCUUAUAGAGGACCGGGAUCGUGCGUG [#04 Same State - Tryptophan B] : is its apparent KD of MS2 coat protein no less than 40 nM? false (0)

Confirm if apparent KD of MS2 coat protein reported for the sequence GGAUAGGACACGGCCGCCACUAGCUAGGAUACUAGCAACAUUUCCUCACUUGAGGAUCACCCAGGUAGGACCGGGUGUCCUAUCG is 40 nM or above. true (1)

Is apparent KD of MS2 coat protein at least 40 nM? Consider GAGCUGAUGUAGAGAUUUUAUUUCUGAGAUACCAGUACAGAAAUGUACCCUUGGCAGCUCAGCUUUACAUGAGGAUCACCCAUGU [Ex Theophylline A 16] false (0)

I'd appreciate it if you could say whether GGGACAUGAGGAUCACCCAUGUACCGGUCCCGAGGACCGGUACGGCCGCCACUCGAUGACCUCAUAGUCUGCCUGAGCAGCAGAC [Abebeti] has apparent KD of MS2 coat protein at least equal to 40 nM. true (1)

API: above_or_equal(metric=apparent KD of MS2 coat protein, cutoff=40 nM) for item AGCCACUCGAGUGAUCCUCACGAGUGGCAACGAGGACCGGUACGGCCGCCACUCGAAUAAACAUGAGGAUCACCCAUGUAAUAAU [T''-M-T'-T-MS2] true (1)

Check this sequence for apparent KD of MS2 coat protein at or above 40 nM: GCACAAGAUGGAAGGAGCGCUGGUAUAAGUCACAUGAGGAUCACCCAUGUGCUCCUUGCCGAGCAGGUAGGUCGCCAUCUUGUGC [SSAB NP+V+V2 #5] true (1)

Confirm if apparent KD of MS2 coat protein reported for the sequence AUGUGCAAUACGGAUACCAGCCCGUGUAGAUACAUGAGGAUCACCCAUGUCAAUGUAAAUGGCCCUUGGCAGCCGUUUGGGAGGC [theeternabot_sameState_MS2_Theo_B_35] is 40 nM or above. false (0)

Check the entry GGAUAGGACAGAAGGAGCGUGAGAUGCAAAGCAUCAUUCCUCACAUGAGGAUCACCCAUGUCACAGGUAGGUCGCUGUCCUAUCG [ArgBX 4] : does apparent KD of MS2 coat protein equal or exceed 40 nM? true (1)

Form field: apparent KD of MS2 coat protein at least 40 nM? Entry: ACGAACGCACCUGAGGAACACCCAGGUGAUACCAGCCUGGAAACAGGCCCUUGGCAGCACCUAAAAUAAAGGUAACGUUCGAAUA [TheoAX8 #MicroSwitchBubble #AlternativeMS2] true (1)

Dear colleague, could you confirm whether GCGACACUCACGGCCGCCACUGAUUAGCCCAGUAUGGAGCCCACACAUGAGGAUCACCCAUGUCACAGGACCGGGUGGGUCUAUU [theeternabot_sameState_MS2_Trp_B_23] has apparent KD of MS2 coat protein at or above 40 nM? true (1)

apparent KD of MS2 coat protein >= 40 nM for GCCUAGCAGCGAAGGAGCGAGGUAAAUAAAUAAAUAAAUAACAAGAGGAUCACCCUUGUUCCUCAGGUAGGUCGCGCUGCUAGGC [SSAB Alternative Aptamer #1 NP+V+V2] ? false (0)

Would you say GACCUUGCGGGCGCCCGCAAGGUUGCGGAUACCAGCGAGGUCCAUCGCCCUUGGCAGCCGAACAUGAGGAUCACCCAUGUCGGAC [Same State - Theophylline A Attempt #3 (HarryS)] shows apparent KD of MS2 coat protein at minimum 40 nM? false (0)

Identify whether the reported apparent KD of MS2 coat protein of the following sequence is 40 nM or greater: UAUCGUCAGACGGCCGCCACUAGAACAUGAGGAUCACCCAUGUACUAGUGGCAUACCUCAUGAACUAGGACCGGGUCUGACGAAU [(Trp1)-(Ms2)-(T)'-(M)'-(Trp2)_Design10] false (0)

Exam item: decide whether the reported apparent KD of MS2 coat protein for GAUUACAUGAGGAUCACCCAUGUAACUGAAGGAGCGGUAAUAAAGCCAGGUAGGUCGCAGAACAACAUGUGGUUCAUCCAUGUAA [#14 Exclusion - Arginine A] is at least 40 nM. false (0)
